Recorded values, source patent US20070249813A1.

Kindly state koff for each of the entries shown.
# measured_on: T1, biotinylated recombinant human TNFα (human, UniProt P01375 77-233, biotinylated (D-biotinyl-ε-aminocaproic acid N-hydroxysuccinimide ester, 2:1 molar ratio of biotin to rhTNFα))
# T1 construct: mature; Immobilized via streptavidin on the BIAcore chip; also called biotinylated rhTNFα; biotinylated rhTNF
# test_method_notes: SPR (BIAcore), biotinylated rhTNFα, scFv
Write the numeric value and follow it with the unit.

Query: Can you look up the measured koff of VH1-D2/2SD4 VL scFv (scFv, V domains shown, scFv) VH: QVQLVESGGGLVQPGRSLRLSCAASGFTFDDYAMHWVRQAPGKGLDWVSAITWNSGHIDYADSVEGRFAVSRDNAKNALYLQMNSLRPEDTAVYYCAKVSYLSTASSLDYWGQGTLVTVSS VL: DIQMTQSPSSLSASIGDRVTITCRASQGIRNYLAWYQQKPGKAPKLLIYAASTLQSGVPSRFSGSGSGTDFTLTISSLQPEDVATYYCQKYNSAPYAFGQGTKVEIK for me?
Reply: 0.00194 s⁻¹

Query: Same for VH1D8/2SD4 VL scFv (scFv, V domains shown, scFv) VH: QVQLVESGGGLVQPGRSLRLSCAASGFTFDDYAMHWVRQAPGKGLDWVSAITWNSGHIDYADSVEGRFAVSRDNAKNALYLQMNSLRPEDTAVYYCARASYLSTSSSLDYWGQGTLVTVSS VL: DIQMTQSPSSLSASIGDRVTITCRASQGIRNYLAWYQQKPGKAPKLLIYAASTLQSGVPSRFSGSGSGTDFTLTISSLQPEDVATYYCQKYNSAPYAFGQGTKVEIK
Reply: 0.0095 s⁻¹

Query: Note, next up: VH1E4/2SD4 VL scFv (scFv, V domains shown, scFv) VH: QVQLVESGGGLVQPGRSLRLSCAASGFTFDDYAMHWVRQAPGKGLDWVSAITWNSGHIDYADSVEGRFAVSRDNAKNALYLQMNSLRPEDTAVYYCAKASYLSTSSSLHYWGQGTLVTVSS VL: DIQMTQSPSSLSASIGDRVTITCRASQGIRNYLAWYQQKPGKAPKLLIYAASTLQSGVPSRFSGSGSGTDFTLTISSLQPEDVATYYCQKYNSAPYAFGQGTKVEIK
Reply: 0.0159 s⁻¹

Query: Similarly, 2SD4 VH/VL100A9 scFv (scFv, V domains shown, scFv) VH: QVQLVESGGGLVQPGRSLRLSCAASGFTFDDYAMHWVRQAPGKGLDWVSAITWNSGHIDYADSVEGRFAVSRDNAKNALYLQMNSLRPEDTAVYYCTKASYLSTSSSLDNWGQGTLVTVSS VL: DIQMTQSPSSLSASIGDRVTITCRASQGIRNYLAWYQQKPGKAPKLLIYAASTLQSGVPSRFSGSGSGTDFTLTISSLQPEDVATYYCQKYSSAPYTFGQGTKVEIK ?
Reply: 0.0133 s⁻¹
